Tested on: murine red blood cells
procedure_summary: Red blood cell hemolysis
Assay type: cell-based, mouse
Non-standard residues stand in square brackets, D forms with d. Residues, ends and D or L forms follow the SMILES beside them.

compound: CC(C)C[C@H]1NC(=O)[C@H](Cc2c[nH]c3ccccc23)NC(=O)[C@@H](Cc2c[nH]cn2)NC(=O)[C@H](CCCCN)NC(=O)[C@@H](CO)NC(=O)[C@H](Cc2c[nH]c3ccccc23)NC(=O)[C@@H](CC(C)C)NC(=O)[C@H](Cc2c[nH]c3ccccc23)NC1=O [SEQ ID NO:14] (cyclo(K[dH]W[dL]W[dL]W[dS]))
RBC Hemolysis (HD50): 20

compound: CC(C)C[C@H]1NC(=O)[C@H](Cc2c[nH]c3ccccc23)NC(=O)[C@@H](CCCNC(=N)N)NC(=O)[C@H](CCC(N)=O)NC(=O)[C@@H](CCCNC(=N)N)NC(=O)[C@H](Cc2c[nH]c3ccccc23)NC(=O)[C@@H](CC(C)C)NC(=O)[C@H](Cc2c[nH]c3ccccc23)NC1=O [SEQ ID NO:10, RQRWLWLW] (cyclo([dR]Q[dR]W[dL]W[dL]W))
RBC Hemolysis (HD50): 25

compound: CC(C)C[C@H]1NC(=O)[C@H](CCCCN)NC(=O)[C@@H](CC(N)=O)NC(=O)[C@H](CCC(N)=O)NC(=O)[C@@H](CC(N)=O)NC(=O)[C@H](CCCCN)NC(=O)[C@@H](CC(C)C)NC(=O)[C@H](Cc2c[nH]c3ccccc23)NC1=O [SEQ ID NO:90, [KNQNKLWL]] (cyclo(K[dN]Q[dN]K[dL]W[dL]))
RBC Hemolysis (HD50): >200

compound: CC[C@H](C)[C@@H]1NC(=O)[C@@H](CO)NC(=O)[C@H](CCCCN)NC(=O)[C@@H]([C@H](C)O)NC(=O)[C@H]([C@@H](C)CC)NC(=O)[C@@H](CCCNC(=N)N)NC1=O [SEQ ID NO:132, [KSIRIT]] (cyclo(K[dS]I[dR]I[dT]))
RBC Hemolysis (HD50): 175

compound: CC(C)C[C@H]1NC(=O)[C@H](Cc2c[nH]c3ccccc23)NC(=O)[C@@H](CCCCN)NC(=O)[C@H](CO)NC(=O)[C@@H](CCCCN)NC(=O)[C@H](Cc2c[nH]c3ccccc23)NC(=O)[C@@H](CC(C)C)NC(=O)[C@H](Cc2c[nH]c3ccccc23)NC1=O [SEQ ID NO:12, D-Lys-Ser-D-Lys-Trp-D-Leu-Trp-D-Leu-Trp] (cyclo([dK]S[dK]W[dL]W[dL]W))
RBC Hemolysis (HD50): 100

compound: CC(C)C[C@H]1NC(=O)[C@H](CCCCN)NC(=O)[C@@H](Cc2c[nH]cn2)NC(=O)[C@H](CCCCN)NC(=O)[C@@H](CC(C)C)NC(=O)[C@H](Cc2c[nH]c3ccccc23)NC(=O)[C@@H](CC(C)C)NC(=O)[C@H](Cc2ccccc2)NC1=O [SEQ ID NO:49, [KHKLFLWL]] (cyclo(K[dH]K[dL]F[dL]W[dL]))
RBC Hemolysis (HD50): 200

---

Test system: S. aureus (MRSA) ATCC 33591
Assay type: cell-based, Staphylococcus aureus
condition_parameters: ATCC 33591
Non-standard residues stand in square brackets, D forms with d. Residues, ends and D or L forms follow the SMILES beside them.

compound: CC(C)C[C@H]1NC(=O)[C@H](CCCNC(=N)N)NC(=O)[C@@H](CCCNC(=N)N)NC(=O)[C@H](Cc2c[nH]c3ccccc23)NC(=O)[C@@H](CC(C)C)NC(=O)[C@H](Cc2c[nH]c3ccccc23)NC1=O [SEQ ID NO:29, cyclo-(D-Arg-Arg-D-Leu-Trp-D-Leu-Trp)] (cyclo(R[dL]W[dL]W[dR]))
S. aureus (MRSA) MIC: 35 mg/L
--
compound: CC(C)C[C@@H](NC(=O)[C@H](Cc1c[nH]c2ccccc12)NC(=O)[C@@H](CC(C)C)NC(=O)[C@H](Cc1c[nH]c2ccccc12)NC(=O)[C@@H](CCCCN)NC(=O)[C@H](CCCCN)NC(=O)[C@@H](CCCCN)NC(=O)[C@@H](N)Cc1c[nH]c2ccccc12)C(=O)N[C@@H](Cc1c[nH]c2ccccc12)C(=O)O [SEQ ID NO:23, WKKKWLWLW] (H-W[dK]K[dK]W[dL]W[dL]W-OH; N-terminus and C-terminus assumed)
S. aureus (MRSA) MIC: 60 mg/L
--
compound: CC(C)C[C@H]1NC(=O)[C@H](Cc2c[nH]c3ccccc23)NC(=O)[C@@H](CCCNC(=N)N)NC(=O)[C@H](CCCNC(=N)N)NC(=O)[C@@H](CCCNC(=N)N)NC(=O)[C@H](Cc2c[nH]c3ccccc23)NC(=O)[C@@H](CC(C)C)NC(=O)[C@H](Cc2c[nH]c3ccccc23)NC1=O [SEQ ID NO:20, RRRWLWLW] (cyclo([dR]R[dR]W[dL]W[dL]W))
S. aureus (MRSA) MIC: 10 mg/L

---

Test system: murine red blood cells
procedure_summary: Red blood cell hemolysis
Format: cell-based, mouse
Non-standard residues stand in square brackets, D forms with d. Residues, ends and D or L forms follow the SMILES beside them.
Threshold 200: RBC Hemolysis (HD50) strictly smaller gives label 1, otherwise label 0.

compound: CC(C)C[C@H]1NC(=O)[C@H](Cc2c[nH]c3ccccc23)NC(=O)[C@@H](CCCCN)NC(=O)[C@H](CO)NC(=O)[C@@H](CO)NC(=O)[C@H](CCCCN)NC(=O)[C@@H](CC(C)C)NC(=O)[C@H](Cc2c[nH]c3ccccc23)NC1=O [SEQ ID NO:82, [KSSKWLWL]] (cyclo(K[dS]S[dK]W[dL]W[dL]))
category_label: label 0

compound: CC(C)C[C@H]1NC(=O)[C@H](CCCCN)NC(=O)[C@@H](Cc2c[nH]cn2)NC(=O)[C@H](CCCCN)NC(=O)[C@@H](CC(C)C)NC(=O)[C@H](Cc2c[nH]c3ccccc23)NC(=O)[C@@H](CC(C)C)NC(=O)[C@H](Cc2c[nH]c3ccccc23)NC1=O [SEQ ID NO:50, [KHKLWLWL]] (cyclo(K[dH]K[dL]W[dL]W[dL]))
category_label: label 1

compound: NCCCC[C@@H]1NC(=O)[C@@H](Cc2ccccc2)NC(=O)[C@H](Cc2c[nH]c3ccccc23)NC(=O)[C@@H](Cc2ccccc2)NC(=O)[C@H](CCCCN)NC(=O)[C@@H](CC(N)=O)NC(=O)[C@H](CCC(N)=O)NC(=O)[C@@H](CC(N)=O)NC1=O [SEQ ID NO:89, [KNQNKFWF]] (cyclo(K[dN]Q[dN]K[dF]W[dF]))
category_label: label 0

compound: CC(C)C[C@H]1NC(=O)[C@H](CCCCN)NC(=O)[C@@H](CC(C)C)NC(=O)[C@H](CCCCN)NC(=O)[C@@H](CC(C)C)NC(=O)[C@H](CCCCN)NC(=O)[C@@H](CC(C)C)NC(=O)[C@H](CCCCN)NC1=O [SEQ ID NO:4, KLKLKLKL] (cyclo(K[dL]K[dL]K[dL]K[dL]))
category_label: label 0

compound: CC(C)[C@H]1NC(=O)[C@H](Cc2ccc(O)cc2)NC(=O)[C@@H](CO)NC(=O)[C@H](CCCCN)NC(=O)[C@@H](CO)NC(=O)[C@H](Cc2c[nH]c3ccccc23)NC1=O [SEQ ID NO:127, [KSYVWS]] (cyclo(K[dS]Y[dV]W[dS]))
category_label: label 0

compound: CC(C)C[C@H]1NC(=O)[C@H](Cc2c[nH]c3ccccc23)NC(=O)[C@@H](CCCCN)NC(=O)[C@H](CCCNC(=N)N)NC(=O)[C@@H](CCCNC(=N)N)NC(=O)[C@H](Cc2c[nH]c3ccccc23)NC(=O)[C@@H](CC(C)C)NC(=O)[C@H](Cc2c[nH]cn2)NC1=O [SEQ ID NO:110, [RRKWLHLW]] (cyclo([dR]R[dK]W[dL]H[dL]W))
category_label: label 1

compound: CC(C)C[C@H]1NC(=O)[C@H](C)NC(=O)[C@@H](CC(C)C)NC(=O)[C@H](CCCCN)NC(=O)[C@@H](Cc2c[nH]cn2)NC(=O)[C@H](CCCCN)NC(=O)[C@@H](CC(C)C)NC(=O)[C@H](Cc2c[nH]c3ccccc23)NC1=O [SEQ ID NO:46, [KHKLALWL]] (cyclo(K[dH]K[dL]A[dL]W[dL]))
category_label: label 0

compound: CC(C)C[C@H]1NC(=O)[C@H](Cc2c[nH]c3ccccc23)NC(=O)[C@@H](CCCCN)NC(=O)[C@H](CCCNC(=N)N)NC(=O)[C@@H](CCCCN)NC(=O)[C@H](Cc2c[nH]c3ccccc23)NC(=O)[C@@H](CC(C)C)NC(=O)[C@H](Cc2c[nH]c3ccccc23)NC1=O [SEQ ID NO:19, D-Lys-Arg-D-Lys-Trp-D-Leu-Trp-D-Leu-Trp] (cyclo([dK]R[dK]W[dL]W[dL]W))
category_label: label 1
